Assay: Half life in iv or po dosed mouse
Type: ADME, organism-based
Conditions: in vivo
value.type: half-life

Prompt line: Report half-life, nothing else, for this compound: CC#C[C@@H](CC(=O)O)c1ccc(OCc2cccc(-c3ccc(C(F)(F)F)cc3)c2)cc1
Response line: 7.2 to 28 h

---

Assay: Oral bioavailability in rat
Format: ADME, organism-based
Conditions: in vivo
value.type: bioavailability

Prompt line: Report bioavailability, nothing else, for this compound: CC#C[C@@H](CC(=O)O)c1ccc(OCc2cccc(-c3ccc(C(F)(F)F)cc3)c2)cc1
Response line: 67 to 100%

---

Experiment: Half life in human
Format: ADME
value.type: half-life

Prompt line: Report half-life, nothing else, for this compound: Cc1cc(OCCCS(C)(=O)=O)cc(C)c1-c1cccc(COc2ccc3c(c2)OC[C@H]3CC(=O)O)c1
Response line: 28 to 30 h
